system: Yap1 mRNA; assay: Dose-dependent inhibition of human Yap1 in SNU-449 cells (Example 9, RTS36584); assay type: cell-based; conditions: free uptake, linear regression on a log/linear plot
Strand notation (5' to 3'): a small letter for the sugar, then the base; units joined by * are phosphorothioate-linked, units joined directly phosphodiester-linked; [ ] holds rarer units or linkages, { } end groups; capitals alone tell only the bases. e = 2'-O-(2-methoxyethyl) (MOE); k = constrained ethyl (cEt); [5mC] = 5-methylcytosine; d = 2'-deoxy (DNA); m = 2'-O-methyl
ASSAY_READOUT: IC50 (nM)
Express it in nM; write the number only.

In the examples that follow, each entry is paired with its recorded IC50.
>>> reported_value("1198268 (kA*kA*dG*dT*dG*dT*dA*dT*dG*dT*d[5mC]*eA*eG*eA*kA*kG; antisense) [compound 1198268]")
100
>>> reported_value("1198295 (kT*kA*kG*dA*dG*dT*dA*dT*dG*dT*dG*dG*k[5mC]*eA*kA*eT; antisense) [compound 1198295]")
100
>>> reported_value("1074798 (kG*k[5mC]*kT*dT*dT*dG*dG*dA*dA*dG*dA*dT*d[5mC]*kT*kG*kA) [compound 1074798]")
100
>>> reported_value("1009326 (kT*kA*kT*dT*dA*dG*dA*dG*dT*dA*dT*dG*dT*kG*kG*k[5mC]; antisense) [compound 1009326]")
50
>>> reported_value("1198814 (kA*kG*dA*dG*dT*dA*dT*dG*dT*dG*dG*k[5mC]*eA*kA*eT*kA) [compound 1198814]")
40

Value of measured IC50 for the entry 1197235 (kA*kT*kT*dA*mG*dA*dG*dT*dA*dT*dG*dT*dG*kG*k[5mC]*kA; antisense) [compound 1197235] : 100

For this substance ( 1198900 (kA*kG*dA*dG*dT*dA*dT*dG*dT*dG*dG*k[5mC]*dA*kA*dT*kA; antisense) [compound 1198900] ), measured IC50 is 100

The value of IC50 measured for the substance 1198616 (kT*kT*kT*dA*dA*dA*dG*dT*dG*dT*dA*dT*kG*kT*k[5mC]*eA; antisense) [compound 1198616] turned out to be 100

The reported IC50 of the substance 1198290 (kT*kG*kG*dA*dA*dA*dT*dT*dG*dT*d[5mC]*dT*k[5mC]*eA*kT*eG; antisense) [compound 1198290] was 100

Form field IC50, entry 1198347 (kG*kT*kA*dA*dT*dA*dT*dT*dG*d[5mC]*dA*dA*kT*e[5mC]*kT*eG) [compound 1198347] : 100

====

tested on: Yap1 mRNA; test: Antisense inhibition of human Yap1 in A-431 cells by cEt gapmers, single dose (Example 3, RTS36584); format: cell-based; conditions: Table 10; A-431 cells, 5,000 cells per well, free uptake, 2,000 nM oligonucleotide, approx. 48 hours; primer probe set RTS36584; Yap1 mRNA normalized to RIBOGREEN, percent of untreated control
Strand notation (5' to 3'): a small letter for the sugar, then the base; units joined by * are phosphorothioate-linked, units joined directly phosphodiester-linked; [ ] holds rarer units or linkages, { } end groups; capitals alone tell only the bases. k = constrained ethyl (cEt); [5mC] = 5-methylcytosine; d = 2'-deoxy (DNA)
Recorded YAP1 (% UTC) values for a group of substances are listed next.
Return type: number; implicit unit % UTC.

Previously resolved entries follow.
>>> reported_value("958667 (kT*kG*k[5mC]*d[5mC]*dG*dG*dG*d[5mC]*d[5mC]*d[5mC]*d[5mC]*dT*dA*kT*kG*k[5mC]; antisense) [Compound 958667]")
80
>>> reported_value("958622 (antisense kG*kA*kT*dA*dT*dT*d[5mC]*d[5mC]*dG*d[5mC]*dA*dT*dT*kG*k[5mC]*k[5mC]) [Compound 958622]")
3
>>> reported_value("958677 (kA*kG*kA*dA*d[5mC]*dT*dT*dA*dG*dT*dT*d[5mC]*d[5mC]*k[5mC]*kT*kA; antisense) [Compound 958677]")
51
>>> reported_value("958752 (antisense kG*kA*kA*dT*dT*dT*dT*dT*dA*dG*dT*d[5mC]*d[5mC]*kA*kG*kT) [Compound 958752]")
2

Now take the following substance into account.
Note to self: YAP1 (% UTC) recorded for 958497 (kA*kT*kA*dT*dG*dG*dA*dA*dA*dT*dT*dG*dT*k[5mC]*kT*k[5mC]) [Compound 958497] was 1

====

tested on: Yap1 mRNA; experiment: Antisense inhibition of human Yap1 in A-431 cells by cEt gapmers, single dose (Example 1, RTS4814); type: cell-based; details: Table 2; A-431 cells, free uptake, 2,000 nM, approximately 48 hours, RTS4814; Yap1 mRNA relative to untreated control cells
Strand notation (5' to 3'): a small letter for the sugar, then the base; units joined by * are phosphorothioate-linked, units joined directly phosphodiester-linked; [ ] holds rarer units or linkages, { } end groups; capitals alone tell only the bases. k = constrained ethyl (cEt); [5mC] = 5-methylcytosine; d = 2'-deoxy (DNA)
Consider the following substances and their measured YAP1 (% UTC) readings.
Response body: numeric value in % UTC, unit text excluded.

>>> reported_value("715458 (antisense k[5mC]*kG*kA*dG*dA*dG*dT*dG*dA*dT*dA*dG*dG*kT*kG*k[5mC]) [Compound 715458]")
58
>>> reported_value("715485 (antisense kA*kA*kT*dA*d[5mC]*dT*d[5mC]*dT*dT*dT*dG*dG*dA*kA*kA*k[5mC]) [Compound 715485]")
72
>>> reported_value("715464 (antisense k[5mC]*k[5mC]*kA*d[5mC]*dA*dT*dT*dT*dG*dT*d[5mC]*d[5mC]*d[5mC]*kA*kG*kG) [Compound 715464]")
89
>>> reported_value("715401 (kG*kG*kT*d[5mC]*dT*d[5mC]*d[5mC]*dG*dA*dG*dT*d[5mC]*d[5mC]*k[5mC]*k[5mC]*kG; antisense) [Compound 715401]")
84
>>> reported_value("715518 (kT*kT*kT*dG*dG*dG*d[5mC]*dA*dA*dA*dG*dT*dT*k[5mC]*k[5mC]*kT; antisense) [Compound 715518]")
60
>>> reported_value("715440 (antisense k[5mC]*kT*kG*dG*dT*dT*d[5mC]*dA*dT*dG*dG*d[5mC]*dA*kA*kA*kA) [Compound 715440]")
85
>>> reported_value("715623 (antisense k[5mC]*k[5mC]*kT*dA*dA*dG*dA*dG*dT*dA*dA*dA*dA*kA*kA*kT) [Compound 715623]")
113
>>> reported_value("715536 (kG*kG*k[5mC]*dT*dA*dT*dT*dA*dA*dG*d[5mC]*dT*dG*kT*kT*kT; antisense) [Compound 715536]")
137
>>> reported_value("715596 (antisense kG*kT*kT*d[5mC]*dA*dT*dG*dG*d[5mC]*dT*dG*dA*dA*kA*kT*kG) [Compound 715596]")
104
>>> reported_value("715407 (kG*kG*k[5mC]*dT*dT*dG*dA*dA*dG*dA*dA*dG*dG*kA*kG*kT; antisense) [Compound 715407]")
53

GET /value?item= 715428 (kT*k[5mC]*k[5mC]*d[5mC]*dA*dT*d[5mC]*d[5mC]*dA*dT*d[5mC]*dA*dG*kG*kA*kA; antisense) [Compound 715428] &field=YAP1 (% UTC) returns 106

response.value for 715521 (kT*k[5mC]*kT*dT*d[5mC]*dT*dT*dT*d[5mC]*d[5mC]*dA*d[5mC]*dT*k[5mC]*kA*kA; antisense) [Compound 715521] (field: YAP1 (% UTC)) = 72

====

test system: Yap1 mRNA; assay: Antisense inhibition of human Yap1 in A-431 cells by cEt gapmers, single dose (Example 3, RTS36584); type: cell-based; conditions: Table 12; A-431 cells, 5,000 cells per well, free uptake, 2,000 nM modified oligonucleotide, approx. 48 hours; RTS36584; normalized to RIBOGREEN; Yap1 mRNA relative to untreated control cells
Strand notation (5' to 3'): a small letter for the sugar, then the base; units joined by * are phosphorothioate-linked, units joined directly phosphodiester-linked; [ ] holds rarer units or linkages, { } end groups; capitals alone tell only the bases. k = constrained ethyl (cEt); [5mC] = 5-methylcytosine; d = 2'-deoxy (DNA)
Entry flag: yes (1) if YAP1 (% UTC) reaches 50 % UTC; no (0) if it does not.

Completed entries (count: 10):
>>> class_name("958739 (antisense kA*kG*k[5mC]*dA*dA*dT*dA*dG*dA*dG*dT*dA*dA*k[5mC]*k[5mC]*kA) [Compound 958739]")
"no (0)"
>>> class_name("958529 (k[5mC]*kA*kA*dG*dT*d[5mC]*dT*dT*dG*dT*dA*dA*dG*kT*kA*kA; antisense) [Compound 958529]")
"no (0)"
>>> class_name("958759 (antisense kG*k[5mC]*k[5mC]*dT*dA*dT*d[5mC]*dG*d[5mC]*d[5mC]*d[5mC]*d[5mC]*dA*kA*kG*k[5mC]) [Compound 958759]")
"yes (1)"
>>> class_name("958654 (kA*kA*kT*dG*dG*dA*dG*dT*dG*dG*d[5mC]*d[5mC]*dG*kG*kG*k[5mC]; antisense) [Compound 958654]")
"yes (1)"
>>> class_name("958784 (antisense kG*kG*k[5mC]*dT*dG*dG*dA*dT*dA*dG*dA*dA*dT*kG*k[5mC]*kT) [Compound 958784]")
"yes (1)"
>>> class_name("958589 (kG*kT*kA*dA*dA*dG*dG*dA*dA*dG*dA*dT*d[5mC]*kT*k[5mC]*k[5mC]; antisense) [Compound 958589]")
"no (0)"
>>> class_name("958699 (antisense kG*kA*k[5mC]*dT*dA*dG*dA*dA*dA*dG*dA*dT*d[5mC]*kA*kT*k[5mC]) [Compound 958699]")
"no (0)"
>>> class_name("958789 (antisense kT*kA*k[5mC]*dT*dA*dT*dA*dT*dA*dA*dT*dA*d[5mC]*k[5mC]*k[5mC]*kT) [Compound 958789]")
"no (0)"
>>> class_name("958689 (antisense k[5mC]*kA*kT*dT*dA*dA*dG*dG*dA*dG*dG*dT*dT*kA*kT*kG) [Compound 958689]")
"yes (1)"
>>> class_name("958624 (antisense kG*kG*kG*dA*dT*dT*dG*dA*dT*dA*dT*dT*d[5mC]*k[5mC]*kG*k[5mC]) [Compound 958624]")
"yes (1)"

**Q:** Threshold query (YAP1 (% UTC) >= 50 % UTC) on 958489 (kT*kT*k[5mC]*dT*dA*dA*dG*dT*d[5mC]*dT*dG*dA*dG*kT*kA*kT; antisense) [Compound 958489]
**A:** no (0)

**Q:** Is YAP1 (% UTC) at least 50 % UTC? Consider 958704 (antisense k[5mC]*k[5mC]*k[5mC]*dT*dA*d[5mC]*dA*d[5mC]*dT*d[5mC]*dG*dA*dG*kG*kA*kT) [Compound 958704]
**A:** yes (1)

**Q:** Is YAP1 (% UTC) at least 50 % UTC? Consider 958809 (kT*k[5mC]*kT*dT*dA*dA*d[5mC]*dA*d[5mC]*d[5mC]*dT*dG*dA*kG*k[5mC]*kT; antisense) [Compound 958809]
**A:** yes (1)
